Values were extracted from ChEMBL document CHEMBL1138415.

Target: D(3) dopamine receptor (Homo sapiens, UniProt P35462)
Sequence (P35462 whole entry): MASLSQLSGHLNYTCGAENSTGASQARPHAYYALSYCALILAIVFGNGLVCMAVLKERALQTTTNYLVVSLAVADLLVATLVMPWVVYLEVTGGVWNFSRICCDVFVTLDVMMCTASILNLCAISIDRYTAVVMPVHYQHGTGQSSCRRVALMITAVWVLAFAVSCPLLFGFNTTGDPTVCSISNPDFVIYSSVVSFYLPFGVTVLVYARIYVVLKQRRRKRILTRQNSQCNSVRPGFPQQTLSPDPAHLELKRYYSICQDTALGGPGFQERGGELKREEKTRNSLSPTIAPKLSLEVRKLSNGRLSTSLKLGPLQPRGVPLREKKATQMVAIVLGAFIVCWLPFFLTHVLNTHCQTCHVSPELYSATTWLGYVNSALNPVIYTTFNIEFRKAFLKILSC
pKi: −log10 of the molar value.
Lab note: anything with pKi at or over 6 counts as 1; the rest go in -1.

# compound, assignedCategory
rows = [
    ("CSc1ccc(C2(O)CCN(Cc3coc4ccccc34)CC2)cc1", 1),
    ("OC1(c2ccc(Cl)cc2)CCCN(Cc2c[nH]c3ccccc23)C1 (stereo unspecified)", -1),
    ("OC1(c2ccc(Cl)c(Cl)c2)CCN(Cc2n[nH]c3ccccc23)CC1", 1),
    ("Cc1[nH]c2ccccc2c1CN1CCC(O)(c2ccc(Cl)cc2)CC1", 1),
    ("CCCCCCOc1ccc(C2(O)CCN(Cc3c[nH]c4ccccc34)CC2)cc1", -1),
    ("OC1(c2ccc(Cl)c(Cl)c2)CCN(Cc2coc3ccccc23)CC1", 1),
    ("CC(=O)NCC1(c2ccc(Cl)cc2)CCN(Cc2c[nH]c3ccccc23)CC1", -1),
    ("OC1(c2cccc(Cl)c2Cl)CCN(Cc2c[nH]c3ccccc23)CC1", 1),
]

Has `OC1(c2cccc(Cl)c2)CCN(Cc2c[nH]c3ccccc23)CC1` a recorded pKi greater than or equal to 6? 1

Does the reported pKi for `NC1(c2ccc(Cl)cc2)CCN(Cc2c[nH]c3ccccc23)CC1` fall at or above the 6 mark? 1

###

Organism: Homo sapiens
Assay: Selectivity for human dopamine D2L receptor over human dopamine D3 receptor
observable: Ratio Ki
Write the number on its own, no unit after it.

# compound, observable, readoutNumber
measured = [
    ("OC1(c2cccc(Cl)c2Cl)CCN(Cc2c[nH]c3ccccc23)CC1", "Ratio Ki", 10),
    ("FC1(c2ccc(Cl)cc2)CCN(Cc2c[nH]c3ccccc23)CC1", "Ratio Ki", 2),
    ("CSc1ccc(C2(O)CCN(Cc3coc4ccccc34)CC2)cc1", "Ratio Ki", 3),
    ("OC1(c2cccc(Cl)c2)CCN(Cc2c[nH]c3ccccc23)CC1", "Ratio Ki", 3),
    ("N#CC1(c2ccc(Cl)cc2)CCN(Cc2c[nH]c3ccccc23)CC1", "Ratio Ki", 3),
    ("CC(=O)NCC1(c2ccc(Cl)cc2)CCN(Cc2c[nH]c3ccccc23)CC1", "Ratio Ki", 6),
    ("CCCCCCOc1ccc(C2(O)CCN(Cc3c[nH]c4ccccc34)CC2)cc1", "Ratio Ki", 12),
    ("Oc1ccc(C2(O)CCN(Cc3c[nH]c4ccccc34)CC2)cc1", "Ratio Ki", 3),
]

Please give the documented Ratio Ki of `Cc1[nH]c2ccccc2c1CN1CCC(O)(c2ccc(Cl)cc2)CC1` 3

Using known records, supply Ratio Ki for `CSc1ccc(C2(O)CCN(Cc3c[nH]c4ccccc34)CC2)cc1` 27

Query Ratio Ki for `OC1(Cc2ccc(Cl)cc2)CCN(Cc2c[nH]c3ccccc23)CC1` 2

Please give the documented Ratio Ki of OC1(c2ccc(Cl)cc2)CCCN(Cc2c[nH]c3ccccc23)C1 (stereo not drawn) 1

###

# Ki per entry
Molecular target: D(4) dopamine receptor (Homo sapiens)
Sequence (P21917 whole entry): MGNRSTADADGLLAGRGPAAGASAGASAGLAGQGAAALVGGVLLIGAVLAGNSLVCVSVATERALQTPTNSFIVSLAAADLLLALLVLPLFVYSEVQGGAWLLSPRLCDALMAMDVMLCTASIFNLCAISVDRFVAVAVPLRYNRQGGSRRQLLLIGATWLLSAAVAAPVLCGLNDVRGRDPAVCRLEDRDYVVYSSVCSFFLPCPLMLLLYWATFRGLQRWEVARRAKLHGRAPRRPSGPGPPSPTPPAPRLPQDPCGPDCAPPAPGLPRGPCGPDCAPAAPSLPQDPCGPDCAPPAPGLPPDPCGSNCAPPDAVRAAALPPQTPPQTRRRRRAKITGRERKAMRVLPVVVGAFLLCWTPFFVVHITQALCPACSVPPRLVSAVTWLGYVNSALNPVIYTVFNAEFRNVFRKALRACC
Answer in nM, number only, no unit symbol.

# smilesString, observable, readoutNumber
records = [
    ("OC1(c2ccc(Cl)cc2)CCN(Cc2c[nH]c3ccccc23)CC1", "Ki", 1520),
    ("CC(=O)NCC1(c2ccc(Cl)cc2)CCN(Cc2c[nH]c3ccccc23)CC1", "Ki", 4450),
    ("N#CC1(c2ccc(Cl)cc2)CCN(Cc2c[nH]c3ccccc23)CC1", "Ki", 2270),
    ("NC1(c2ccc(Cl)cc2)CCN(Cc2c[nH]c3ccccc23)CC1", "Ki", 2290),
    ("OC1(c2ccc(Cl)cc2)CCN(Cc2n[nH]c3ccccc23)CC1", "Ki", 2150),
    ("OC1(c2ccc(Cl)c(Cl)c2)CCN(Cc2coc3ccccc23)CC1", "Ki", 167),
]

Give the observed Ki of `CCCCCCOc1ccc(C2(O)CCN(Cc3c[nH]c4ccccc34)CC2)cc1` for D(4) dopamine receptor (Homo sapiens). 1490

Provide D(4) dopamine receptor (Homo sapiens) Ki reading for `OCC1(c2ccc(Cl)cc2)CCN(Cc2c[nH]c3ccccc23)CC1` . 1940

Specify the recorded Ki for `COc1ccc2[nH]cc(CN3CCC(O)(c4ccc(SC)cc4)CC3)c2c1` , system: D(4) dopamine receptor (Homo sapiens). 567

Recall the reported Ki of `CCOC(=O)C1(c2ccc(Cl)cc2)CCN(Cc2c[nH]c3ccccc23)CC1` when tested on D(4) dopamine receptor (Homo sapiens). 3520

GET Ki | system: D(4) dopamine receptor (Homo sapiens) | item: `Cc1[nH]c2ccccc2c1CN1CCC(O)(c2ccc(Cl)cc2)CC1` 2990

###

Below, each of the compounds is paired with its reported pKi value.
Biological target: D(4) dopamine receptor (Homo sapiens, UniProt P21917)
Sequence (P21917 whole entry): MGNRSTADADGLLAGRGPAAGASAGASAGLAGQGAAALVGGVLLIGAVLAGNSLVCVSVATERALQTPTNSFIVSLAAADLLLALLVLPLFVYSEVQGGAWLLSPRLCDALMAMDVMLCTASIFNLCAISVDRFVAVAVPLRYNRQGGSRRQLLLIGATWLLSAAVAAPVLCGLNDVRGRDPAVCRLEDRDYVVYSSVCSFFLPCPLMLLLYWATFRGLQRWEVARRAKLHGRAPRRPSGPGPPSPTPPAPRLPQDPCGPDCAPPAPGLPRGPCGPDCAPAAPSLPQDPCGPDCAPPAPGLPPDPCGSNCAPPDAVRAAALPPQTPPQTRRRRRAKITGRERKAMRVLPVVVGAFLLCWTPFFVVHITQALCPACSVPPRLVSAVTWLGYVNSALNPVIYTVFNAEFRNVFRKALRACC
pKi is a log-scale quantity: -log10 of the concentration expressed in molar.

Please review the following examples before continuing.
# smilesString, pKi
measured = [
    ("OC1(c2ccc(Cl)c(Cl)c2)CCN(Cc2c[nH]c3ccccc23)CC1", 5.96),
    ("COc1ccc(C2(O)CCN(Cc3c[nH]c4ccccc34)CC2)cc1", 6.17),
    ("CSc1ccc(C2(O)CCN(Cc3c[nH]c4ccccc34)CC2)cc1", 6.50),
]

Please indicate pKi recorded for `OC1(c2cccc(C(F)(F)F)c2)CCN(Cc2c[nH]c3ccccc23)CC1` 5.43

Please give measured pKi of the following entry: `OC1(c2ccccc2Cl)CCN(Cc2c[nH]c3ccccc23)CC1` 5.55

State its pKi for this compound: `COC(=O)C1(c2ccc(Cl)cc2)CCN(Cc2c[nH]c3ccccc23)CC1` 5.41

Provide only the value of recorded pKi for `CSc1ccc(C2(O)CCN(Cc3coc4ccccc34)CC2)cc1` 6.82

Fill in reported pKi for this entry: `OC1(c2ccc(Cl)cc2)CCN(Cc2coc3ccccc23)CC1` 6.39

###

Species on record: Homo sapiens
Test: Selectivity for human dopamine D2L receptor over human dopamine D3 receptor
Ratio Ki for assorted compounds
Answer field: number only, no words.

Known results for compounds:
# compound, observable, readoutNumber
rows = [
    ("CC1(c2ccc(Cl)cc2)CCN(Cc2c[nH]c3ccccc23)CC1", "Ratio Ki", 2),
    ("OC1(c2ccc(-c3ccccc3)cc2)CCN(Cc2c[nH]c3ccccc23)CC1", "Ratio Ki", 5),
    ("OC1(c2ccc(Cl)c(Cl)c2)CCN(Cc2n[nH]c3ccccc23)CC1", "Ratio Ki", 0.4),
    ("OC1(c2ccc(Cl)cc2)CCCN(Cc2c[nH]c3ccccc23)CC1 (stereo unspecified)", "Ratio Ki", 10),
    ("CC(=O)NC1(c2ccc(Cl)cc2)CCN(Cc2c[nH]c3ccccc23)CC1", "Ratio Ki", 2),
    ("NC1(c2ccc(Cl)cc2)CCN(Cc2c[nH]c3ccccc23)CC1", "Ratio Ki", 2),
    ("OC1(c2ccc(Cl)cc2)CCN(Cc2coc3ccccc23)CC1", "Ratio Ki", 3),
    ("OCC1(c2ccc(Cl)cc2)CCN(Cc2c[nH]c3ccccc23)CC1", "Ratio Ki", 0.04),
]

Indicate its recorded Ratio Ki; the compound in question is `COc1ccc2[nH]cc(CN3CCC(O)(c4ccc(SC)cc4)CC3)c2c1` 105

Provide Ratio Ki value for the following compound: `CCOC(=O)C1(c2ccc(Cl)cc2)CCN(Cc2c[nH]c3ccccc23)CC1` 12

Quick one: give measured Ratio Ki for `Cn1cc(CN2CCC(O)(c3ccc(Cl)cc3)CC2)c2ccccc21` 8
